Let's look at some compounds and their measured Change in conflict.
- Tested on: Rattus norvegicus
- METHOD NOTES: Effect on conflict responding in Long-Evans rats when 25 mg/kg was administered by oral gavage in a modified Geller-Seifter conflict schedule.
- Type: functional
Supply the numeric figure in %, leaving out any unit text.

Please review the entries below; each comes with its answer.
sample_smiles=Cn1cnc2c(ncn2Cc2ccccc2)c1=O test_target="Rattus norvegicus" u=% recorded_number=-16
sample_smiles=CN(C)c1ncnc2c1ncn2Cc1cccc(N)c1 test_target="Rattus norvegicus" u=% recorded_number=4

From here, focus on the item given below.
Value (Change in conflict, Rattus norvegicus) for record `CN(C)c1ncnc2c1ncn2Cc1ccccc1F` = 17

* * *

Measured IC50 values are reported for all entries that follow.
- TEST TARGET: GABA-A receptor; anion channel
- METHOD NOTES: Concentration that inhibits binding of 1.5 nM [3H]diazepam to rat brain benzodiazepine receptor
Unit µM implied. Number only.

IC50 reported for this compound `CN(C)c1ncnc2c1ncn2C(c1ccccc1)c1ccccc1` : 17

* * *

The following compounds are shown together with reported inhibition values.
- TEST TARGET: GABA-A receptor; anion channel (Rattus norvegicus) (UniProt O09028+P15431+P18506+P18508+P19969+P20236+P23574+P23576+P28471+P28473+P30191+P62813+P63079+P63138+Q91ZM7+Q9ES14)
- METHOD NOTES: The percent inhibition of [3H]diazepam binding to the benzodiazepine receptor of rat brain elicited by 100 uM of compound
Only the number, expressed in %, is required.

Sample answers from the record:
sample_smiles=Clc1ncnc2c1ncn2Cc1ccccc1 recorded_number=40
sample_smiles=CN(C)c1ncnc2c1ncn2Cc1cccc(I)c1 recorded_number=64
sample_smiles=CN(C)c1ncnc2c1ncn2CCCc1ccccc1 recorded_number=0

# inhibition (compound: `CN(C)c1ncnc2c1ncn2CCc1ccccc1` ) is 0

Notebook: `CN(C)c1ncnc2c1ncn2Cc1cccc(C(F)(F)F)c1` , inhibition read as 49

* * *

Quick reference: IC50 of the listed items.
- TEST TARGET: GABA-A receptor; anion channel
- METHOD NOTES: Concentration that inhibits binding of 1.5 nM [3H]diazepam to rat brain benzodiazepine receptor
State the answer as a number, implicitly in µM.

compound=c1ccc(Cn2cnc3c(N4CCCC4)ncnc32)cc1 recorded_number=16

GABA-A receptor; anion channel assay, compound `CN(C)c1ncnc2c1ncn2Cc1ccccc1F` , recorded IC50 = 5.4

// assay GABA-A receptor; anion channel, entry `CCNc1ncnc2c1ncn2Cc1ccccc1` , IC50 value = 19

For the compound `CN(C)c1ncnc2c1ncn2Cc1ccccc1` , the measured IC50 on GABA-A receptor; anion channel was 13

Observed IC50, GABA-A receptor; anion channel, `CN(C)c1ncnc2c1ncn2Cc1cccc(F)c1` : 7.3

Summary line: `Oc1ncnc2c1ncn2Cc1ccccc1` , GABA-A receptor; anion channel, reported IC50 = 19

Item `c1ccc(Cn2cnc3c(N4CCC4)ncnc32)cc1` was tested on GABA-A receptor; anion channel; the reported IC50 is 15

Entry `C[C@@H](c1ccccc1)n1cnc2c(N(C)C)ncnc21` , tested on GABA-A receptor; anion channel, has a reported IC50 of 2.1

The recorded IC50 with GABA-A receptor; anion channel for `COc1ccccc1Cn1cnc2c(N(C)C)ncnc21` was 20

// compound `CN(C)c1ncnc2c1ncn2Cc1cccc(OC(=O)C(C)(C)C)c1` , assay GABA-A receptor; anion channel, IC50 value: 1.6

Tested on GABA-A receptor; anion channel, the item `CN(C)c1ncnc2c1ncn2Cc1cccc(O)c1` showed IC50 equal to 1.2

// assay GABA-A receptor; anion channel, entry `CNc1ncnc2c1ncn2Cc1ccccc1` , IC50 value = 24

Entry `CN(C)c1ncnc2c1ncn2Cc1cccc(CO)c1` , tested on GABA-A receptor; anion channel, has a reported IC50 of 5

Param item: CNC1=Nc2ccc(Cl)cc2C(c2ccccc2)=[N+]([O-])C1 [CHLORDIAZEPOXIDE] ; param system: GABA-A receptor; anion channel; output IC50: 0.2

Entry `CN(C)c1ncnc2c1ncn2Cc1ccccc1Cl` under GABA-A receptor; anion channel had IC50 of 13

With GABA-A receptor; anion channel as the test system, `CN(c1ncnc2c1ncn2Cc1ccccc1)C1CCCC1` showed IC50 of 14

Log: GABA-A receptor; anion channel, compound `CCN(C)c1ncnc2c1ncn2Cc1ccccc1` , IC50 = 19

Short answer on GABA-A receptor; anion channel for Nc1ncnc2c1ncn2Cc1ccccc1 [9-BENZYL-9H-ADENINE] , IC50: 37

Entry COc1ncnc2c1ncn2Cc1ccccc1 [9-BENZYL-6-METHOXY-9H-PURINE] , tested on GABA-A receptor; anion channel, has a reported IC50 of 14

Given the compound `CC(=O)Oc1cccc(Cn2cnc3c(N(C)C)ncnc32)c1` and test system GABA-A receptor; anion channel, the measured IC50 is 0.44

// IC50 (GABA-A receptor; anion channel) for `CN(C)c1ncnc2c1ncn2Cc1cccc(N)c1` = 0.9

Summary line: `CSc1ncnc2c1ncn2Cc1ccccc1` , GABA-A receptor; anion channel, reported IC50 = 3.3

Log: GABA-A receptor; anion channel, compound `Cn1cnc2c(ncn2Cc2ccccc2)c1=O` , IC50 = 15.5

Lab note: compound CN(C)c1ncnc2c1ncn2C1CCCc2ccccc21 (centres undefined) tested on GABA-A receptor; anion channel; recorded IC50 was 22
